B1: Ribonuclease, P00648 (parent)
chain: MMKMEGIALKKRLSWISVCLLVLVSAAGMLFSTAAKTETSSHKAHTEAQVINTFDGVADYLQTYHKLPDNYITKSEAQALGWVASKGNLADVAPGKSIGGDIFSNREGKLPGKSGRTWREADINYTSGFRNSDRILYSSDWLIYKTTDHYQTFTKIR

- Variants of: B1
- assaySetup: Bacillus amyloliquefaciens; pH 6.3; 25 °C; Urea; Fluorescence; MES-NaOH 450 mM; reversible: yes; structure 1BNI; whole UniProt chain shown
# strict inequality: unfolding free energy < 7 kcal/mol yields 1, everything else yields 0

>>> labelvalue("V92A")
0
>>> labelvalue("V83T")
0
>>> labelvalue("L136T")
1
>>> labelvalue("I156V")
0
>>> labelvalue("Y71F")
0
>>> labelvalue("D101A")
1
>>> labelvalue("I102V")
0
>>> labelvalue("I135A")
1
>>> labelvalue("V92T")
1
>>> labelvalue("D55A D59A R157A")
0
>>> labelvalue("R157A")
0
>>> labelvalue("D55A")
0
>>> labelvalue("I72V")
0
>>> labelvalue("T63R")
0
>>> labelvalue("N88D")
1
>>> labelvalue("I98V")
0
>>> labelvalue("S139A")
1
